Biological target: T1, mouse TNFR1 (recombinant, R&D Systems cat no. 425-R1-050/CF, biotinylated) (mouse, UniProt P25118 22-212, biotinylated with EZ-Link NHS-LC-LC-biotin)
T1 construct: also called murine TNFR1; biotinylated mouse TNFR1
T1 sequence (looked up): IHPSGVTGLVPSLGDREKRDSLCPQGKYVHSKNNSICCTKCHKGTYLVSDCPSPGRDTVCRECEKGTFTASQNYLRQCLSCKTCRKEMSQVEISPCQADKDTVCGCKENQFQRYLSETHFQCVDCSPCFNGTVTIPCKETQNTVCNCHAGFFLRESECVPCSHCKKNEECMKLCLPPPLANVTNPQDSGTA
Assay: BIAcore, mouse TNFR1 on SA chip
In this section we review reported kon values for a set of binders.
Return type: number; implicit unit M⁻¹ s⁻¹.

| binder | kon [M⁻¹ s⁻¹] |
| --- | --- |
| DOM1h-574-162 (other, VH dAb) VH: EVQLLESGGGLVQPGGSLRLSCAASGFTFFKYSMGWVRQAPGKGLEWVSQISDTADRTYYSHSVKGRFTISRDNSKNTLYLQMNSLRAEDTAVYYCAIYTGRWVPFEYWGQGTLVTVSS | 140000 |

Short answer for DOM1h-574-138 (other, VH dAb) VH: EVQLLESGGGLVQPGGSLRLSCAASGFTFFKYSMGWVRQAPGKGLEWVSQISDTADRTYYAHSVKGRFTISRDNSKNTLYLQMNSLRAEDTAVYYCAIYTGRWAPFEYWGQGTLVTVSS : kon was 130000

Short answer for DOM1h-574-109 (other, VH dAb) VH: EVQLLESGGGLVQPGGSLRLSCAASGFTFVKYSMGWVRQAPGKGLEWVSQISDTADRTYYAHSVKGRFTISRDNSKNTLYLQMNSLRAEDTAVYYCAIYTGRWVPFEYWGQGTLVTVSS : kon was 120000

Short answer for DOM1h-574-156 (other, VH dAb) VH: EVQLLESGGGLVQPGGSLRLSCAASGFTFFKYSMGWVRQAPGKGLEWVSQISDTADRTYYAHSVKGRFTISRDNSKNTLYLQMNSLRAEDTAVYYCAIYTGRWVPFEYWGQGTLVTVSS : kon was 140000

Short answer for DOM1h-574-72 (other, VH dAb; expressed in E. coli, purified on Protein A) VH: EVQLLESGGGLVQPGGSLRLSCAASGFTFVKYSMGWVRQAPGKGLEWVSQISNTADRTYYAHSVKGRFTISRDNSKNTLYLQMNSLRAEDTAVYYCAIYTGRWVPFEYWGQGTLVTVSS : kon was 100000
